These measurements were taken from patent US20140142040A1.

Target: T1, human plasmin (human), P00747
T1 chain: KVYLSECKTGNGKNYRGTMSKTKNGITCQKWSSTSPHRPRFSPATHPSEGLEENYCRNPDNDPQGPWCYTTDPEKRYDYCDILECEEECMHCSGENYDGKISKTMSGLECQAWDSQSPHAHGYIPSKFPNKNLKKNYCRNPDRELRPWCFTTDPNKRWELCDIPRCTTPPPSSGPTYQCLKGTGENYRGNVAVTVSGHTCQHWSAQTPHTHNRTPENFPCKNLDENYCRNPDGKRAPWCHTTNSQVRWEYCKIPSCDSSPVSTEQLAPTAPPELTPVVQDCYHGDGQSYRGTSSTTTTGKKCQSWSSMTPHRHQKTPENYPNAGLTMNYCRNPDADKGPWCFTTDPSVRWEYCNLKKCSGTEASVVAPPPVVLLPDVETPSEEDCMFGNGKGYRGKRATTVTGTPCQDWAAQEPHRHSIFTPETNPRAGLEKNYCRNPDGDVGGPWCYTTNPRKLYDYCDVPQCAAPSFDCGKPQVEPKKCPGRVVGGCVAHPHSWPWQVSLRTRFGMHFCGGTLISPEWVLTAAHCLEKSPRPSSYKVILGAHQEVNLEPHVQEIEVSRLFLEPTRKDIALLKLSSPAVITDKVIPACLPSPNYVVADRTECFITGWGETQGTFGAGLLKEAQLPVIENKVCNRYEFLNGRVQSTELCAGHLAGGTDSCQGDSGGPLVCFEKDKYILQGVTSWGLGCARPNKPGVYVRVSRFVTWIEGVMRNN
pKi: −log10 of the molar value.
endpoint.name: pKi

binder | endpoint.name | readout.value
DrKIn-I (Daboia russelii Kunitz Inhibitor-I), A8Y7N4 25-90 (protein, modifications not checked) QDRPKFCNLAPESGRCRGHLRRIYYNPDSNKCEVFFYGGCGGNDNNFETRKKCRQTCGAPRKGRPT | pKi | 8.81
